- System Under Test: ATP-dependent translocase ABCB1 (Homo sapiens, UniProt P08183)
- Sequence (P08183 whole entry): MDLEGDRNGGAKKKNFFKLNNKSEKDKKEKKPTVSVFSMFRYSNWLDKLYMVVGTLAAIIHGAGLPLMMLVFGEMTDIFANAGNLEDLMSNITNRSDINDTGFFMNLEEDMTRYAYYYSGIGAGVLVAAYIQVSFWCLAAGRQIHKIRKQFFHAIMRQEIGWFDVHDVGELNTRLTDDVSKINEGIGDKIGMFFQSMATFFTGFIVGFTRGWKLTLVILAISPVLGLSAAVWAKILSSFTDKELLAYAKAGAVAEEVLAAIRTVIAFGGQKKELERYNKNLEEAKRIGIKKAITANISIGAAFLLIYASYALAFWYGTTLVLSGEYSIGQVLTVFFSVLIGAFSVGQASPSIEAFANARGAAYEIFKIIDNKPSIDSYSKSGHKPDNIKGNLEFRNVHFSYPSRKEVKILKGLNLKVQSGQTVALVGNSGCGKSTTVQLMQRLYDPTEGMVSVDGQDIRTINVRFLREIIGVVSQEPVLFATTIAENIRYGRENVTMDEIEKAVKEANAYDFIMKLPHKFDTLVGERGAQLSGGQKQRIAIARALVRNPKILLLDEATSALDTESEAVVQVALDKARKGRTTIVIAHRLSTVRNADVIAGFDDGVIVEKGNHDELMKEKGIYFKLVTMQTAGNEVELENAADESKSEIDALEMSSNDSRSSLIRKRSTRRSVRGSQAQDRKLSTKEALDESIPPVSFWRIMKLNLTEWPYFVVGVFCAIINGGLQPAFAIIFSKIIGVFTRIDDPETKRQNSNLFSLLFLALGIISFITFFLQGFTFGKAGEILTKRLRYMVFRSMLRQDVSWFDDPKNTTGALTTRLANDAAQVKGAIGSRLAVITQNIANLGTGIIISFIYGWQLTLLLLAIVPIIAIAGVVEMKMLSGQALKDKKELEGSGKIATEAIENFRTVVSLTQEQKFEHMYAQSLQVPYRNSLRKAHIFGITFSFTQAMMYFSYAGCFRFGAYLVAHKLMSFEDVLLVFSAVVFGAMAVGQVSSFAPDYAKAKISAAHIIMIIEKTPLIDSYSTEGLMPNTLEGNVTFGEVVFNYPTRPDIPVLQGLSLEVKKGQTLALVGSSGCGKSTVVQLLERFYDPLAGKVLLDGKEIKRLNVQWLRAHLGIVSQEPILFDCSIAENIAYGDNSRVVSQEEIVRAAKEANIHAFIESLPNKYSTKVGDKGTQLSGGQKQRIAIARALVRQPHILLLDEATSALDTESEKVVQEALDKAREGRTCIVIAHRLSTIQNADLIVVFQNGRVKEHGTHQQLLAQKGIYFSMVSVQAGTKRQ
- Assay Explanation: Reversal of P-glycoprotein-mediated multidrug resistance in human MDR1 gene transfected mouse L5178 cells assessed as mean fluorescence intensity at 40 ug/ml by rhodamine-123 exclusion test
- Format: cell-based
Label Y when Flu intensity is strictly below 1000; otherwise label N.

Worked cases, answers included:
Molecule	Category Label
C=C1[C@@H](OC(=O)C(C)C)[C@@H](OC(C)=O)C(=O)C(C)(C)/C=C/[C@H](C)[C@H](OC(=O)c2ccccc2)[C@@]2(O)C[C@H](C)[C@H](OC(C)=O)[C@@H]2[C@H]1OC(C)=O	N
CCCC(=O)OC[C@H]1C[C@]2(OC(=O)/C=C/c3ccccc3)C(=O)/C(C)=C/[C@@H]3[C@H](CC[C@@]4(C)O[C@@H]4[C@H]2[C@H]1OC(=O)CCC)C3(C)C	Y
C=C1[C@@H](OC(=O)C(C)CC)[C@@H](OC(C)=O)C(=O)C(C)(C)/C=C/[C@H](C)[C@H](OC(=O)c2ccccc2)[C@@]2(O)C[C@H](C)[C@H](OC(C)=O)[C@@H]2[C@H]1OC(C)=O (stereo partly specified)	N
CCC(=O)OC[C@H]1C[C@]2(OC(=O)/C=C/c3ccccc3)C(=O)/C(C)=C/[C@@H]3[C@H](CC[C@@]4(C)O[C@@H]4[C@H]2[C@H]1OC(=O)CC)C3(C)C	Y

Q. In the record for `CC(=O)O[C@H]1[C@@H](COC(=O)c2ccccc2)C[C@]2(OC(=O)/C=C/c3ccccc3)C(=O)/C(C)=C/[C@@H]3[C@H](CC[C@@]4(C)O[C@@H]4[C@@H]12)C3(C)C` , is Flu intensity less than 1000?
A. Y

Q. Try `C=C1[C@@H](OC(=O)c2ccccc2)[C@@H](OC(C)=O)[C@@H](OC(C)=O)C(C)(C)/C=C/[C@H](C)C(=O)[C@@]2(OC(C)=O)C[C@@](C)(OC(=O)c3ccccc3)[C@H](OC(C)=O)[C@@H]2[C@H]1OC(C)=O` next.
A. N
